Provide the recorded Tissue distribution, Stomach for the entries that follow.
Assay: Tissue distribution in ICR mice (normal animals)
Type: in vivo
Settings: 1 h after injection
Don't forget the unit after the value.

Challenge: Give Tissue distribution, Stomach for the following compound: COc1ccc(C[C@@](C)(N)C(=O)O)cc1[211At] [^211At-AAMT-O-Me-D]
Response given: 6.34 ± 2.74 %ID/g

Challenge: # return recorded Tissue distribution, Stomach for entry COc1ccc(C[C@](C)(N)C(=O)O)cc1[211At] [^211At-AAMT-O-Me-L]
Response given: 13.65 ± 2.40 %ID/g

Challenge: Return reported Tissue distribution, Stomach. Input compound: CCCOc1ccc(C[C@](C)(N)C(=O)O)cc1[211At] [^211At-AAMT-O-Pr-L]
Response given: 13.55 ± 2.66 %ID/g

Challenge: Identify the reported Tissue distribution, Stomach for the following entry. CCOc1ccc(C[C@](C)(N)C(=O)O)cc1[211At] [^211At-AAMT-O-Et-L]
Response given: 19.50 ± 5.82 %ID/g

====

Record form. Attribute: Tissue distribution, Salivary glands. Fill in for each entry.
Assay: Tissue distribution in ICR mice (normal animals)
Type: in vivo
Conditions: 3 h after injection
Give the number; %ID/g is assumed, so skip it.

Challenge: Give the reported Tissue distribution, Salivary glands for this compound. COc1ccc(C[C@@](C)(N)C(=O)O)cc1[211At] [^211At-AAMT-O-Me-D]
Response given: 0.96

Challenge: Provide measured Tissue distribution, Salivary glands value, entry: CCCOc1ccc(C[C@](C)(N)C(=O)O)cc1[211At] [^211At-AAMT-O-Pr-L]
Response given: 11.39

Challenge: Give the measured Tissue distribution, Salivary glands for COc1ccc(C[C@](C)(N)C(=O)O)cc1[211At] [^211At-AAMT-O-Me-L]
Response given: 1.77

Challenge: Fill in reported Tissue distribution, Salivary glands for this entry: CCOc1ccc(C[C@](C)(N)C(=O)O)cc1[211At] [^211At-AAMT-O-Et-L]
Response given: 15.05

====

Test system: PANC-1 tumor model
Assay: Tissue distribution in nude mice (PANC-1 tumor model)
Type: in vivo, BALB/c nu/nu mice
Conditions: nude mice (PANC-1 tumor model), 1 h after injection
quantity measured: Tissue distribution, Lung (%ID/g)
Value expressed in %ID/g; do not type the unit.

Challenge: Write down measured Tissue distribution, Lung (PANC-1 tumor model) for this compound. COc1ccc(C[C@@](C)(N)C(=O)O)cc1[211At] [^211At-AAMT-O-Me-D]
Response given: 2.24

Challenge: Give Tissue distribution, Lung only, for COc1ccc(C[C@](C)(N)C(=O)O)cc1[211At] [^211At-AAMT-O-Me-L] , using PANC-1 tumor model data.
Response given: 5.16

Challenge: Give measured Tissue distribution, Lung for CCOc1ccc(C[C@](C)(N)C(=O)O)cc1[211At] [^211At-AAMT-O-Et-L] (PANC-1 tumor model).
Response given: 9.69

Challenge: Give the observed Tissue distribution, Lung of CCCOc1ccc(C[C@](C)(N)C(=O)O)cc1[211At] [^211At-AAMT-O-Pr-L] for PANC-1 tumor model.
Response given: 14.15

====

Test: Tissue distribution in ICR mice (normal animals)
Assay type: in vivo
Conditions: 3 h after injection
quantity measured: Tissue distribution, Bone
Lab note: write values as number then unit, every time.

Challenge: Please list Tissue distribution, Bone recorded for the molecule COc1ccc(C[C@](C)(N)C(=O)O)cc1[211At] [^211At-AAMT-O-Me-L]
Response given: 0.53 ± 1.31 %ID/g

Challenge: Give Tissue distribution, Bone for the following molecule: CCCOc1ccc(C[C@](C)(N)C(=O)O)cc1[211At] [^211At-AAMT-O-Pr-L]
Response given: 1.32 ± 0.12 %ID/g

Challenge: Find the measured Tissue distribution, Bone of CCOc1ccc(C[C@](C)(N)C(=O)O)cc1[211At] [^211At-AAMT-O-Et-L] and report it.
Response given: 1.00 ± 0.18 %ID/g

Challenge: State its Tissue distribution, Bone: COc1ccc(C[C@@](C)(N)C(=O)O)cc1[211At] [^211At-AAMT-O-Me-D]
Response given: 0.28 ± 0.11 %ID/g

Recorded values, source paper PMC11594329.
